src = ChEMBL document CHEMBL3351303

Provide the recorded concentration at 20 min for the entries that follow.
test: Plasma concentration in C57BL/6 mouse at 3 mg/kg, po administered as single dose 30 mins before orally glucose challenge and measured 20 mins post oral glucose challenge; type: ADME, organism-based; parameters: dose 3 mg/kg, route oral
Entry rule: numbers only, all in ng/mL.

Noted for N[C@@H](CC(=O)N1CCn2c(nnc2C(F)(F)F)C1)Cc1cc(F)c(F)cc1F : its concentration at 20 min reads 179

Lab book: concentration at 20 min of Cc1cc(N2CCC[C@@H](N)C2)c2c(n1)n(C)c(=O)n2Cc1ccccc1C#N noted as 129

====

assay: Cmax in dog at 5 mg/kg, po; format: ADME, organism-based, Canis lupus familiaris; design: dose 5 mg/kg, route oral; details: in vivo
OBSERVED PROPERTY: Cmax (ng/mL)
Field format: number, assumed ng/mL, no unit text.

The recorded Cmax for Cc1cc(N2CCC[C@@H](N)C2)c2c(n1)n(C)c(=O)n2Cc1ccccc1C#N is 1360

====

test: Oral bioavailability in rat at 8 mg/kg; format: ADME, organism-based; settings: in vivo
OBSERVED PROPERTY: bioavailability (%)
Write it as a number; the unit % goes unstated.

Item: Cn1c(=O)n(Cc2ccccc2C#N)c2c(N3CCC[C@@H](N)C3)ncnc21 | bioavailability: 12

====

test: Half life in rat at 5 mg/kg, iv; type: ADME, organism-based; set-up: dose 5 mg/kg, route intravenous; conditions: in vivo
OBSERVED PROPERTY: half-life

Kindly note the recorded half-life for Cn1c(=O)n(Cc2ccccc2C#N)c2c(N3CCC[C@@H](N)C3)cccc21 , which is 1.2 h

The reported value for Cn1c(=O)n(Cc2ccccc2C#N)c2c(N3CC[C@@H](N)C3)ccnc21 in terms of half-life is 1.1 h

Per the records, this compound ( Cn1c(=O)n(Cc2ccccc2C#N)c2c(N3CCC[C@@H](N)C3)ccnc21 ) has half-life equal to 2.4 h

Entry Cn1c(=O)n(Cc2ccccc2C#N)c2c(N3CCC[C@@H](N)C3)cc(C(N)=O)nc21 , half-life reported as 0.8 h

====

experiment: Half life in rat at 10 mg/kg, iv; type: ADME, organism-based; parameters: dose 10 mg/kg, route intravenous; settings: in vivo
OBSERVED PROPERTY: half-life (h)
Numeric only. Scale: h

Short answer for Cc1cc(N2CCC[C@@H](N)C2)c2c(n1)n(C)c(=O)n2Cc1ccccc1C#N : half-life was 1.83

====

assay: Oral bioavailability in rat at 4 mg/kg; type: ADME, organism-based; conditions: in vivo
OBSERVED PROPERTY: bioavailability (%)
The reply should contain only the number, in %.

# bioavailability (compound: Cn1c(=O)n(Cc2ccccc2C#N)c2c(N3CCC[C@@H](N)C3)cc(C(F)(F)F)nc21 ) is 89

====

test: Protein binding in dog; type: ADME, organism-based, Canis lupus familiaris; conditions: in vivo, read-out: PB (converted)
OBSERVED PROPERTY: fraction unbound

// Cc1cc(N2CCC[C@@H](N)C2)c2c(n1)n(C)c(=O)n2Cc1ccccc1C#N : fraction unbound value = 0.26

====

assay: Cmax in monkey at 10 mg/kg, po; format: ADME, organism-based, Macaca mulatta; design: dose 10 mg/kg, route oral; details: rhesus monkey, in vivo
OBSERVED PROPERTY: Cmax (ng/mL)
Write the value in ng/mL as a bare number.

Note to self: Cmax recorded for Cc1cc(N2CCC[C@@H](N)C2)c2c(n1)n(C)c(=O)n2Cc1ccccc1C#N was 3030

====

assay: Clearance in rat at 5 mg/kg, iv; type: ADME, organism-based; parameters: dose 5 mg/kg, route intravenous; conditions: in vivo
Provide the recorded clearance for the entries that follow.
Please state the figure in mL/min/kg; there is no need to write the unit.

// field: clearance; key: Cn1c(=O)n(Cc2ccccc2C#N)c2c(N3CCC[C@@H](N)C3)ccnc21 ; value = 65

Per the record, Cn1c(=O)n(Cc2ccccc2C#N)c2c(N3CCC[C@@H](N)C3)cc(C(N)=O)nc21 has clearance of 73.2

clearance recorded for this compound, Cn1c(=O)n(Cc2ccccc2C#N)c2c(N3CCC[C@@H](N)C3)cccc21 , is 90.7

Record Cn1c(=O)n(Cc2ccccc2C#N)c2c(N3CC[C@@H](N)C3)ccnc21 . Reported clearance: 84

====

experiment: Half life in monkey at 10 mg/kg, po; assay type: ADME, organism-based, Macaca mulatta; design: dose 10 mg/kg, route oral; conditions: rhesus monkey, in vivo
OBSERVED PROPERTY: half-life (h)
The figure you give is taken to be in h; do not add the unit.

// Cc1cc(N2CCC[C@@H](N)C2)c2c(n1)n(C)c(=O)n2Cc1ccccc1C#N : half-life value = 4.8

====

assay: Clearance in rat at 2 mg/kg, iv; assay type: ADME, organism-based; parameters: dose 2 mg/kg, route intravenous; conditions: in vivo
OBSERVED PROPERTY: clearance (mL/min/kg)
Answer format: numeric, mL/min/kg implied, no suffix.

The recorded clearance for entry Cn1c(=O)n(Cc2ccccc2C#N)c2c(N3CCC[C@@H](N)C3)cc(CO)nc21 equals 27.5

Note to self: clearance recorded for Cn1c(=O)n(Cc2ccccc2C#N)c2c(N3CCC[C@@H](N)C3)cc(C(F)(F)F)nc21 was 36

====

assay: Protein binding in rat; assay type: ADME, organism-based; details: in vivo, read-out: PB (converted)
OBSERVED PROPERTY: fraction unbound
Answer field: number only, no words.

GET /value?item= Cc1cc(N2CCC[C@@H](N)C2)c2c(n1)n(C)c(=O)n2Cc1ccccc1C#N &field=fraction unbound returns 0.58

====

assay: Toxicity in rat after 28 days; assay type: organism-based; details: in vivo
OBSERVED PROPERTY: NOAEL at 672 h (mg/kg)
Write it as a number; the unit mg/kg goes unstated.

Input Cc1cc(N2CCC[C@@H](N)C2)c2c(n1)n(C)c(=O)n2Cc1ccccc1C#N . Output NOAEL at 672 h: 150

====

Give measured Vd for each item. Keep answers brief.
assay: Volume of distribution at steady state in rat at 5 mg/kg, iv; format: ADME, organism-based; parameters: dose 5 mg/kg, route intravenous; settings: in vivo, read-out: Vdss
Write the number in L/kg without appending the unit.

Please fill in: Vd reported for Cn1c(=O)n(Cc2ccccc2C#N)c2c(N3CC[C@@H](N)C3)ccnc21 = 4.55

// recorded Vd for Cn1c(=O)n(Cc2ccccc2C#N)c2c(N3CCC[C@@H](N)C3)ccnc21 : 5.42

The recorded Vd for Cn1c(=O)n(Cc2ccccc2C#N)c2c(N3CCC[C@@H](N)C3)cccc21 is 5.89

The compound listed as Cn1c(=O)n(Cc2ccccc2C#N)c2c(N3CCC[C@@H](N)C3)cc(C(N)=O)nc21 shows Vd equal to 4.22

====

Field: AUC(0-t). Provide a value for each of the molecules that follow.
assay: AUClast in rat at 10 mg/kg, po; type: ADME, organism-based; set-up: time 0 - last, dose 10 mg/kg, route oral; conditions: plasma

// recorded AUC(0-t) for Cn1c(=O)n(Cc2ccccc2C#N)c2c(N3CC[C@@H](N)C3)ccnc21 : 541 ng·h/mL

Reported AUC(0-t) for Cc1cc(N2CCC[C@@H](N)C2)c2c(n1)n(C)c(=O)n2Cc1ccccc1C#N was 3980 ng·h/mL

Reported AUC(0-t) of Cn1c(=O)n(Cc2ccccc2C#N)c2c(N3CCC[C@@H](N)C3)cccc21 : 896 ng·h/mL

The recorded AUC(0-t) for Cn1c(=O)n(Cc2ccccc2C#N)c2c(N3CCC[C@@H](N)C3)ccnc21 is 880 ng·h/mL

Given item Cn1c(=O)n(Cc2ccccc2C#N)c2c(N3CCC[C@@H](N)C3)cc(C(N)=O)nc21 , the value recorded as its AUC(0-t) is 209 ng·h/mL

====

assay: Volume of distribution at steady state in dog at 6.25 mg/kg, iv; type: ADME, organism-based, Canis lupus familiaris; design: dose 6.25 mg/kg, route intravenous; conditions: in vivo, read-out: Vdss
OBSERVED PROPERTY: Vd (L/kg)
Numbers only; they are read as L/kg.

Reported Vd ( Cc1cc(N2CCC[C@@H](N)C2)c2c(n1)n(C)c(=O)n2Cc1ccccc1C#N ) = 2.46

====

test: Cmax in rat at 10 mg/kg, po; format: ADME, organism-based; design: dose 10 mg/kg, route oral; conditions: in vivo
Give t when the value for Cmax is at least 200 ng/mL. Give f when it is less.

Q: Can Cn1c(=O)n(Cc2ccccc2C#N)c2c(N3CCC[C@@H](N)C3)cc(C(N)=O)nc21 be said to have Cmax at or above 200 ng/mL?
Ans: f

Q: Record Cc1cc(N2CCC[C@@H](N)C2)c2c(n1)n(C)c(=O)n2Cc1ccccc1C#N ; criterion: Cmax no lower than 200 ng/mL. Met?
Ans: t

Q: Can Cn1c(=O)n(Cc2ccccc2C#N)c2c(N3CC[C@@H](N)C3)ccnc21 be said to have Cmax at or above 200 ng/mL?
Ans: t

Q: Check this molecule for Cmax at or above 200 ng/mL: Cn1c(=O)n(Cc2ccccc2C#N)c2c(N3CCC[C@@H](N)C3)ccnc21
Ans: f
